- testTarget: the molecule itself
- method: cross-linking
recordedMetric: stoichiometry N

[[record]]
protein = "9xHis-SUMO-NEMO(1–120)(des4C/L107C), covalent dimer (domain or fragment, human, UniProt Q9Y6K9 1-120, looked up, interchain disulfide bond at Cys107) MNRHLWKSQLAEMVQPSGGPAADQDVLGEESPLGKPAMLHLPSEQGAPETLQRALEENQELRDAIRQSNQILRERAEELLHFQASQREEKEFLMAKFQEARKLVERCGLEKLDLKRQKEQ"
endpointvalue = 2

[[record]]
protein = "9xHis-SUMO-NEMO(1–120)(des3C/C54/L107C), covalent dimer (domain or fragment, human, UniProt Q9Y6K9 1-120, looked up, interchain disulfide bonds at Cys54 and Cys107) MNRHLWKSQLAEMVQPSGGPAADQDVLGEESPLGKPAMLHLPSEQGAPETLQRCLEENQELRDAIRQSNQILRERAEELLHFQASQREEKEFLMAKFQEARKLVERCGLEKLDLKRQKEQ"
endpointvalue = 2

[[record]]
protein = "9xHis-SUMO-NEMO(1–120)(des3C/C54), oxidised covalent dimer (domain or fragment, human, UniProt Q9Y6K9 1-120, looked up, interchain disulfide bond at Cys54) MNRHLWKSQLAEMVQPSGGPAADQDVLGEESPLGKPAMLHLPSEQGAPETLQRCLEENQELRDAIRQSNQILRERAEELLHFQASQREEKEFLMAKFQEARKLVERLGLEKLDLKRQKEQ"
endpointvalue = 2

[[record]]
protein = "9xHis-SUMO-NEMO(44–111)(des2C/C54/L107C), covalent dimer (domain or fragment, human, UniProt Q9Y6K9 44-111, looked up, also: covalent dimer via interchain disulfides at Cys54 and Cys107) {9xHis‑SUMO}-EQGAPETLQRCLEENQELRDAIRQSNQILRERAEELLHFQASQREEKEFLMAKFQEARKLVERCGLEK"
endpointvalue = 2

[[record]]
protein = "9xHis-SUMO-NEMO(44–111)(des3C/L107C), covalent dimer (domain or fragment, human, UniProt Q9Y6K9 44-111, looked up, also: covalent dimer via interchain disulfide at Cys107) {9xHis‑SUMO}-EQGAPETLQRALEENQELRDAIRQSNQILRERAEELLHFQASQREEKEFLMAKFQEARKLVERCGLEK"
endpointvalue = 2

[[record]]
protein = "9xHis-SUMO-NEMO(44–111)(des2C/C54), covalent dimer (domain or fragment, human, UniProt Q9Y6K9 44-111, looked up, also: covalent dimer via interchain disulfide at Cys54) {9xHis‑SUMO}-EQGAPETLQRCLEENQELRDAIRQSNQILRERAEELLHFQASQREEKEFLMAKFQEARKLVERLGLEK"
endpointvalue = 2


Values compiled from paper PMC4278678.
